Reference source for all entries: the supplement of paper PMC8728848

# Experimental Target: Neu5Ac(a2-3)Gal6S(b1-4)[Fuc(a1-3)]GlcNAc
# Assay Info: glycan array binding signal (z-score within array); higher = stronger binding
# Applied Conditions: glycan notation: IUPAC condensed, linker removed
Shown is part of a subset that was picked to be rich in the strongest signals.
Metric Name: glycan array binding signal (z-score)

State, in one line, measured glycan array binding signal (z-score) of EUL D1A (Oryza sativa) (protein) MFGFGHHHNQAPAAPSDPNQIFKIFCRANENYCLTVRDSAVVLAPVNPKDEHQHWFKDMRFSTKVKDGEGMPAFALVNKATGLAVKHSLGQSHPVKLVPFNPEYEDASVLWTESKDVGKGFRCIRMVNNTRLNLDAFHGDKDHGGVRDGTTVVLWEWCKGDNQSWKILPWGPEAHSSSPGAATACTIGGVPVHTVRVFSAAGEDYCLTVRNGTACLAPKNPRDDYQHWIKDMRHSNKIRDEEGYPAFALVNKVTGEAIKHSTGQGHPVKLVPYNPEYQDESVLWTESKDVGKGFRCIRMVNNIYLNFDAFHGDKDHGGIHDGTEIVLWKWCEGDNQRWKILPWILEQKLISEEDLNSAVDHHHHHH
-0.714
